meta.source: paper PMC8041284

- tgt: BTK (Homo sapiens, UniProt Q06187)
- Sequence (Q06187 402-655 limits assumed): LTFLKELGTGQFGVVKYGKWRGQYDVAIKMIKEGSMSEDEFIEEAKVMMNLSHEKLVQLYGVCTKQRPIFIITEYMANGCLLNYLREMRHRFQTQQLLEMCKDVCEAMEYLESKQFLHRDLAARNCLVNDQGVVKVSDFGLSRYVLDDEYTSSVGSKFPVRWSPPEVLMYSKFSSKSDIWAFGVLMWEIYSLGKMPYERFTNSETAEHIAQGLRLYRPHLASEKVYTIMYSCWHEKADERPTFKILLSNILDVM
- test.details: biochemical
- experimental.parameters: read-out: BTK inhibition (%), 0.75 uM BTK, […] probe 3l, 15 min preincubation
endpoint: inhibition at 10 µM

Cc1ccc(-n2nc(C(C)(C)C)cc2NC(=O)NCc2cc(F)ccc2Oc2ccc3c(cnn3CCO)c2)cc1: 28.3%
CC1=C(C(=O)OC(C)C)C(c2cccc([N+](=O)[O-])c2)C(C(=O)OC2CN(C(c3ccccc3)c3ccccc3)C2)=C(N)N1 (stereo not shown): 70%
O=c1cc(-c2ccc(O)c(O)c2O)oc2ccccc12: 34%

Please turn your attention to the following entry.
Q. Provide inhibition at 10 µM value for the following compound: `CCCCCCCCCC(=O)OCC(COC(=O)CCCCCCCCC)OC(=O)CCCCCCCCC`
A. 11.6%

* * *

- tgt: BTK (Homo sapiens)
- test.details: biochemical
- experimental.parameters: read-out: BTK inhibition (%), 0.75 uM BTK, […] probe 3l, 15 min preincubation
In this section, each of the compounds is paired with its reported inhibition at 10 µM.
Note: unit % is implicit; provide only the numeric part.

Q. Provide inhibition at 10 µM value for the following compound: `Cc1cnc(-c2ccccc2C(C)C)nc1NCc1ccc(-n2ccnn2)cc1`
A. 3.9

Q. Provide inhibition at 10 µM value for the following compound: CN1[C@@H]2CC[C@H]1CC(OC(c1ccccc1)c1ccccc1)C2 (some centres unmarked)
A. -3.1

Q. Provide inhibition at 10 µM value for the following compound: `COC1=C2C[C@@H](C)C[C@H](OC)[C@H](O)[C@@H](C)/C=C(\C)[C@H](OC(N)=O)[C@@H](OC)/C=C\C=C(/C)C(=O)NC(=CC1=O)C2=O`
A. 0

Q. Provide inhibition at 10 µM value for the following compound: `Cc1c(C(=O)Nc2ccc(Oc3ccnc4[nH]cc(-c5ccccc5)c34)c(F)c2)c(=O)n(-c2ccc(F)cc2)n1C`
A. 95.9

Q. Provide inhibition at 10 µM value for the following compound: `CC(C)C[C@H](NC(=O)[C@H](CCc1ccccc1)NC(=O)CN1CCOCC1)C(=O)N[C@@H](Cc1ccccc1)C(=O)N[C@@H](CC(C)C)C(=O)[C@@]1(C)CO1`
A. -17.1

Q. Provide inhibition at 10 µM value for the following compound: `O=c1ccc2ccc(O)c(O)c2o1`
A. 15.9

Q. Provide inhibition at 10 µM value for the following compound: `Cn1cc(C(=O)Nc2ccc3c(c2)OCCO3)c2ccccc2c1=O`
A. 6.9

Q. Provide inhibition at 10 µM value for the following compound: `N=C(N)c1ccc2cc(OC(=O)c3ccc(N=C(N)N)cc3)ccc2c1`
A. -1.6

Q. Provide inhibition at 10 µM value for the following compound: `CC(C)Oc1ccc(-c2nc(-c3cccc4c3CC[C@@H]4NCCO)no2)cc1C#N`
A. -5.5

Q. Provide inhibition at 10 µM value for the following compound: `CNC(=O)c1cc(Oc2ccc(NC(=O)Nc3ccc(Cl)c(C(F)(F)F)c3)c(F)c2)ccn1`
A. 13.1

Q. Provide inhibition at 10 µM value for the following compound: Cc1ccccc1N1C(=O)c2cc(S(N)(=O)=O)c(Cl)cc2NC1C (centres unmarked)
A. -4.7

Q. Provide inhibition at 10 µM value for the following compound: `NCC(=O)Nc1ccc(-n2nc(C(F)(F)F)cc2-c2ccc3c(ccc4ccccc43)c2)cc1`
A. 70.3

Q. Provide inhibition at 10 µM value for the following compound: `CCCN(CCC)S(=O)(=O)c1ccc(C(=O)O)cc1`
A. -4.7

Q. Provide inhibition at 10 µM value for the following compound: `C=CC[C@]1(O)CC[C@H]2[C@@H]3CCC4=CC(=O)CCC4=C3C=C[C@@]21C`
A. -4.7

Q. Provide inhibition at 10 µM value for the following compound: `CC(C)(C)NC(=O)c1cncn1C1CCN(c2ccc(-c3nnc(C(F)(F)F)o3)cn2)CC1`
A. -12.4

Q. Provide inhibition at 10 µM value for the following compound: `NC(=O)c1cccc(-c2cccc(OC(=O)NC3CCCCC3)c2)c1`
A. -6.2

Q. Provide inhibition at 10 µM value for the following compound: `Cc1c(C(=O)Nc2ccc(N3CCC(N4CCOCC4)CC3)c(C#N)c2)cnn1-c1ccc(Cl)cc1`
A. -11.7

* * *

In this section, each of the compounds is paired with its reported inhibition at 10 µM.
- tgt: BTK (Homo sapiens, UniProt Q06187)
- test.details: biochemical
- experimental.parameters: read-out: BTK inhibition (%), 0.75 uM BTK, […] probe 3l, 15 min preincubation
Note: unit % is implicit; provide only the numeric part.

Below: 3 compounds and their reported inhibition at 10 µM.
CC(=O)O[C@]1(C(C)=O)CC[C@H]2[C@@H]3C=C(Cl)C4=CC(=O)[C@@H]5C[C@@H]5[C@]4(C)[C@H]3CC[C@@]21C: 21
O=C(CCCCCCNC(=O)c1cnc(N(c2ccccc2)c2ccccc2Cl)nc1)NO: -6.9
CC1(C)S[C@@H]2[C@H](NC(=O)C(c3ccccc3)S(=O)(=O)O)C(=O)N2[C@H]1C(=O)O (stereo partly shown): 7.7

Q. Provide inhibition at 10 µM value for the following compound: `Nc1nc2c(ncn2COC(CO)CO)c(=O)[nH]1`
A. -3.9

Q. Provide inhibition at 10 µM value for the following compound: `COc1cc(C(=O)O)ccc1NC(=O)[C@@H]1N[C@@H](CC(C)(C)C)[C@](C#N)(c2ccc(Cl)cc2F)[C@H]1c1cccc(Cl)c1F`
A. 27.8

Q. Provide inhibition at 10 µM value for the following compound: `CC(C)n1c(=O)n(C)c2cnc3cc(F)c(-c4ccc(OCCCN5CCCCC5)nc4)cc3c21`
A. -13.9

Q. Provide inhibition at 10 µM value for the following compound: `OC[C@@H](O)[C@@H](O)[C@H](O)[C@@H](O)CO`
A. -19.5

* * *

- tgt: BTK (Homo sapiens)
- test.details: biochemical
- experimental.parameters: read-out: BTK inhibition (%), 0.75 uM BTK, […] probe 3l, 15 min preincubation
endpoint: inhibition at 10 µM (%)
Note: unit % is implicit; provide only the numeric part.

Below: 3 compounds and their reported inhibition at 10 µM.
Nc1[nH]c(=O)nc2c1ncn2[C@@H]1O[C@H](CO)[C@@H](O)[C@H]1O: -11.6
CN[C@@H]1[C@H](O[C@H]2[C@H](O[C@H]3[C@H](O)[C@@H](O)[C@H](N=C(N)N)[C@@H](O)[C@@H]3N=C(N)N)O[C@@H](C)[C@]2(O)C=O)O[C@@H](CO)[C@H](O)[C@H]1O: -10.2
COc1ccc2cc(-c3nc(-c4ccc([S+](C)[O-])cc4)[nH]c3-c3ccncc3)ccc2c1 (stereo not drawn): 33.8

Q. Provide inhibition at 10 µM value for the following compound: COc1cc2c(cc1OC)C1Cc3ccc(OC)c(OC)c3CN1CC2 (stereo not drawn)
A. -14

Q. Provide inhibition at 10 µM value for the following compound: `CC(N)=NCc1cccc(CN)c1`
A. 13.1

Q. Provide inhibition at 10 µM value for the following compound: `CCCCCCCCCCCCCCCCCCCCCC(=O)O`
A. 23.2

Q. Provide inhibition at 10 µM value for the following compound: `COc1ccc(C(C)=O)c(O)c1`
A. 6.2

Q. Provide inhibition at 10 µM value for the following compound: `CC(=O)OCC(=O)NCCCOc1cccc(CN2CCCCC2)c1`
A. -3.4

Q. Provide inhibition at 10 µM value for the following compound: `O=C(c1ccc(F)cc1)C1CCN(CCn2c(=O)[nH]c3ccccc3c2=O)CC1`
A. 0

* * *

In this section, each of the molecules is paired with its reported IC50.
- tgt: ITK (Homo sapiens)
- Sequence (Q08881 whole entry, species assumed): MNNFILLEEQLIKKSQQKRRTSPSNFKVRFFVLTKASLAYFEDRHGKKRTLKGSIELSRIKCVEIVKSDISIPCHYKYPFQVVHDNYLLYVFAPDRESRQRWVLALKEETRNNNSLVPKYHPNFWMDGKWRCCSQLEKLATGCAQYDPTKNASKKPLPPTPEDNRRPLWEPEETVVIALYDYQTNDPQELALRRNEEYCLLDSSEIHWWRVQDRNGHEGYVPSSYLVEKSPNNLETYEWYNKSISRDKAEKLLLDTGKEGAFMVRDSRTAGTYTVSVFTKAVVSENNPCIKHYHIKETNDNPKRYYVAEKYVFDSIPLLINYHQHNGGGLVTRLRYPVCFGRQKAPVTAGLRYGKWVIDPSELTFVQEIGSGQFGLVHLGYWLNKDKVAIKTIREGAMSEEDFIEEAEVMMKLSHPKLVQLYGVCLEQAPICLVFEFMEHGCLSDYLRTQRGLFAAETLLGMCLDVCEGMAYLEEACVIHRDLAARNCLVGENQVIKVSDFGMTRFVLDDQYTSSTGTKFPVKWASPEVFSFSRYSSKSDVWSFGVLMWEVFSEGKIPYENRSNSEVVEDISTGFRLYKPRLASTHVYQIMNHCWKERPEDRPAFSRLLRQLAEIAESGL

C=C(CNCc1ccccc1)C(=O)N1CCC[C@@H](n2nc(-c3ccc(Oc4ccccc4)cc3)c3c(N)ncnc32)C1 [3e]: 30 nM
C=C(COC(C)=O)C(=O)N1CCC[C@@H](n2nc(-c3ccc(Oc4ccccc4)cc3)c3c(N)ncnc32)C1 [3h]: 295 nM

Please turn your attention to the following entry.
Q. Provide ITK (Homo sapiens) IC50 reading for C=C(COC(=O)OC)C(=O)N1CCC[C@@H](n2nc(-c3ccc(Oc4ccccc4)cc3)c3c(N)ncnc32)C1 [3i] .
A. 232 nM

* * *

In this section, each of the compounds is paired with its reported inhibition at 10 µM.
- tgt: BTK (Homo sapiens, UniProt Q06187)
- test.details: biochemical
- experimental.parameters: read-out: BTK inhibition (%), 0.75 uM BTK, […] probe 3l, 15 min preincubation
Note: unit % is implicit; provide only the numeric part.

Below: 3 compounds and their reported inhibition at 10 µM.
CC[C@]12C=CCN3CC[C@@]4(c5ccc(OC)cc5N(C)[C@H]4[C@@](O)(C(=O)OC)[C@@H]1OC(C)=O)[C@@H]32: 6.2
Nc1nccc(Oc2ccc3c(C(=O)Nc4cccc(C(F)(F)F)c4)cccc3c2)n1: -2.8
Cc1cc(C2CCCCC2)n(O)c(=O)c1: 39.7

Q. Provide inhibition at 10 µM value for the following compound: `O=c1cc(N2CCOCC2)oc2c1ccc1ccccc12`
A. -17.9
